Measured viability at 72 h, 12.5 µM of individual entries
TEST PROTOCOL: Vero cell viability, MTT test, 72 h
Format: cell-based, African green monkey
TEST CONTEXT: African green monkey, Vero cells, -F127 (PBS); 12.50 µM/L; Vero, MTT, 3 days; read-out: Viability % ±s.d.
All answers are understood in %, so give the number only.

compound `O=C(CC[n+]1ccccc1)Oc1ccc(-c2c3nc(c(-c4ccc(OC(=O)CC[n+]5ccccc5)cc4)c4ccc([nH]4)c(-c4ccc(OC(=O)CC[n+]5ccccc5)cc4)c4nc(c(-c5ccc(OC(=O)CC[n+]6ccccc6)cc5)c5ccc2[nH]5)C=C4)C=C3)cc1` , viability at 72 h, 12.5 µM observed: 94.7

Next:
compound C[n+]1ccc(-c2c3nc(c(-c4cc[n+](C)cc4)c4ccc([nH]4)c(-c4cc[n+](C)cc4)c4nc(c(-c5cc[n+](C)cc5)c5ccc2[nH]5)C=C4)C=C3)cc1 [TMePyP, reference compound] , viability at 72 h, 12.5 µM observed: 97.4

###

TEST PROTOCOL: Vero cell viability, MTT test, 72 h
Assay type: cell-based, African green monkey
TEST CONTEXT: African green monkey, Vero cells, +F127 (Pluronic F-127); 0.39 µM/L; Vero, MTT, 3 days; read-out: Viability % ±s.d.
Measured viability at 72 h, 0.39 µM of individual entries
All answers are understood in %, so give the number only.

compound C[n+]1ccc(-c2c3nc(c(-c4cc[n+](C)cc4)c4ccc([nH]4)c(-c4cc[n+](C)cc4)c4nc(c(-c5cc[n+](C)cc5)c5ccc2[nH]5)C=C4)C=C3)cc1 [TMePyP, reference compound] , viability at 72 h, 0.39 µM observed: 82.9

Here's the next entry for you.
compound `O=C(CC[n+]1ccccc1)Oc1ccc(-c2c3nc(c(-c4ccc(OC(=O)CC[n+]5ccccc5)cc4)c4ccc([nH]4)c(-c4ccc(OC(=O)CC[n+]5ccccc5)cc4)c4nc(c(-c5ccc(OC(=O)CC[n+]6ccccc6)cc5)c5ccc2[nH]5)C=C4)C=C3)cc1` , viability at 72 h, 0.39 µM observed: 93

###

TEST PROTOCOL: Vero cell viability, MTT test, 72 h
Assay type: cell-based, African green monkey
TEST CONTEXT: African green monkey, Vero cells, -F127 (PBS); 50 µM/L; Vero, MTT, 3 days; read-out: Viability % ±s.d.
MEASUREMENT NAME: viability at 72 h, 50 µM (%)
All answers are understood in %, so give the number only.

molecule C[n+]1ccc(-c2c3nc(c(-c4cc[n+](C)cc4)c4ccc([nH]4)c(-c4cc[n+](C)cc4)c4nc(c(-c5cc[n+](C)cc5)c5ccc2[nH]5)C=C4)C=C3)cc1 [TMePyP, reference compound] , viability at 72 h, 50 µM observed: 93.7

Next:
molecule O=C(CC[n+]1ccccc1)Oc1ccc(-c2c3nc(c(-c4ccc(OC(=O)CC[n+]5ccccc5)cc4)c4ccc([nH]4)c(-c4ccc(OC(=O)CC[n+]5ccccc5)cc4)c4nc(c(-c5ccc(OC(=O)CC[n+]6ccccc6)cc5)c5ccc2[nH]5)C=C4)C=C3)cc1 [3a] , viability at 72 h, 50 µM observed: 91.9

###

TEST PROTOCOL: Vero cell viability, MTT test, 72 h
Assay type: cell-based, African green monkey
TEST CONTEXT: African green monkey, Vero cells, +F127 (Pluronic F-127); 1.56 µM/L; Vero, MTT, 3 days; read-out: Viability % ±s.d.
MEASUREMENT NAME: viability at 72 h, 1.56 µM (%)
All answers are understood in %, so give the number only.

molecule C[n+]1ccc(-c2c3nc(c(-c4cc[n+](C)cc4)c4ccc([nH]4)c(-c4cc[n+](C)cc4)c4nc(c(-c5cc[n+](C)cc5)c5ccc2[nH]5)C=C4)C=C3)cc1 [TMePyP, reference compound] , viability at 72 h, 1.56 µM observed: 90.2

Here's the next entry for you.
molecule O=C(CC[n+]1ccccc1)Oc1ccc(-c2c3nc(c(-c4ccc(OC(=O)CC[n+]5ccccc5)cc4)c4ccc([nH]4)c(-c4ccc(OC(=O)CC[n+]5ccccc5)cc4)c4nc(c(-c5ccc(OC(=O)CC[n+]6ccccc6)cc5)c5ccc2[nH]5)C=C4)C=C3)cc1 [3a] , viability at 72 h, 1.56 µM observed: 95.6
